# Test description: titration / microtitration (pK)
# Assay type: physicochemical
# Test context: microtitration with 0.1 N tetramethylammonium hydroxide in methylcellosolve/water (8:2); read-out: pK^xMCS
Parameter: pKa
Lab note: record the figure alone, no unit after it.

Q. Supply measured pKa of COc1c(Cl)ccc2c(=O)c3c(O)c4c5c(c3oc12)OCOC5C(OC)c1cc2c(c(O)c1-4)C(=O)N(C)C(OC)C2O (stereo not shown) in your reply.
A. 9.72
